Where do the numbers come from? From patent US20210230266A1.

# EXPERIMENTAL TARGET: T1, Mouse IL-11 (mouse, UniProt P47873 22-199, limits assumed)
# T1 construct: also called murine IL-11; recombinant murine IL-11
# T1 sequence (looked up): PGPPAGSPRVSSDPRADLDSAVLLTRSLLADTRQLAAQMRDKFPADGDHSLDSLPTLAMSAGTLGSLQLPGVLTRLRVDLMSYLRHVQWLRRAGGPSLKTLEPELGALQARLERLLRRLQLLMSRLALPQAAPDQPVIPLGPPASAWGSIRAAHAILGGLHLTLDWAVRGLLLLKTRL
# ASSAY SUMMARY: ELISA
Below, each entry is listed alongside its reported mIL11 - average signal.

- BINDER: "YU100-F01 (antibody) QVQLVQSGGGVVQPGRSLRLSCAASGFTFSSYGMHWVRQAPGKGLEWVAVISYDGSNKYYADSVKGRFTISRDNSKNTLYLQMNSLRAEDTAVYYCAKIGATDPLDYWGQGTLVTVSSGSASAPKLEEGEFSEARVQSALTQPASVSGSPGQSITISCTGTGSDVGAYDYVSWYQQHPGKAPKLMIYDVNNRPSGVSNRFSGSKSGNTASLTISGLQAEDEAEYYCSSFATSISWVFGGGTRLTVL"
  mIL11 - average signal: 0.528
- BINDER: "YU100-F11 (antibody, V domains shown, light chain-shuffled human anti-IL-11 clone) VH: QVQLVESGGGVVQPGRSLRLSCAASGFTFSSYGMHWVRQAPGKGLEWVAVISYDGSNKYYADSVKGRFTISRDNSKNTLYLQMNSLRAEDTAVYYCAKIGATDPLDYWGQGTLVTVSS VL: QSALTQPASVSGSPGQSITISCTGSSSDVAGYNYVSWYQQHPGKAPKLMIYDVTKRPSGVPDRFSGSKSGNTASLTISGLQAEDEADYYCCSYAGSYTWVFGGGTQLTVLG"
  mIL11 - average signal: 0.395
- BINDER: "YU100-A10 (antibody) EVQLVESGGGVVQPGRSLRLSCAASGFTFSSYGMHWVRQAPGKGLEWVAVISYDGSNKYYADSVKGRFTISRDNSKNTLYLQMNSLRAEDTAVYYCAKIGATDPLDYWGQGTLVTVSSGSASAPKLEEGEFSEARVLPVLTQPASVSGSPGQSITISCTGTSSDVGAYNYVSWYQQHPGKAPELMIYDVSNRPSGVSNRFSGSKSGNTASLTISGLQPEDEADYYCSSFTTSIAWVFGGGTKLTVL"
  mIL11 - average signal: 0.54
- BINDER: "YU100-G08 (antibody, human IgG1, V domains shown, Light chain shuffled human antibody; Only the variable domains are tied to the clone) VH: QVQLVQSGGGVVQPGRSLRLSCAASGFTFSSYGMHWVRQAPGKGLEWVAVISYDGSNKYYADSVKGRFTISRDNSKNTLYLQMNSLRAEDTAVYYCAKIGATDPLDYWGQGTLVTVSS VL: QSALTQPRSVSGSPGQSVTLSCTGTSSDVGGYNYVSWYQHYPGKAPKLMIFDVNERSSGVPDRFSGSKSGNTASLTISGLQAEDEADYYCCSYAGRYTWMFGGGTKVTVLG"
  mIL11 - average signal: 0.27
- BINDER: "YU100-E11 (antibody) QVQLVESGGGVVQPGRSLRLSCAASGFTFSSYGMHWVRQAPGKGLEWVAVISYDGSNKYYADSVKGRFTISRDNSKNTLYLQMNSLRAEDTAVYYCARIMGYDYGDYDVVDYWGQGTLVTVSSGSASAPKLEEGEFSEARVQSALTQPRSVSGSPGQSVTISCTGTSSDVGGYNYVSWYQQHPGKAPKLMIYDVSKRPSGVPDRFSGSKSGNTASLTISGLQAEDEADYYCCSYAGSYTWVFGGGTKLTVL"
  mIL11 - average signal: 0.435
